B1: Hairpin Ribozyme (parent)
chain: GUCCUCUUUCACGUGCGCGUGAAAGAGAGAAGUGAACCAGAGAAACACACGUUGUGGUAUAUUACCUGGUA

# Variants of: B1
# Assay info: self-cleavage, relative activity (ratio to wild type); higher = more cleavage; co-transcriptional
Readout: self-cleavage
Give bare numbers.

Example entries and their recorded answers appear below.
Variant identifier: A11U A39U
self-cleavage: 0.309
//
Variant identifier: C4U C50G
self-cleavage: 0.11
//
Variant identifier: G42A A43U
self-cleavage: 0.215
//
Variant identifier: A47U C50A
self-cleavage: 0.113
//
Variant identifier: U5A C65A
self-cleavage: 0.22

Return reported self-cleavage values for all items listed beneath this line.
1. U14C A30U
2. C38G U53C
3. G27U G69C
4. G29C C66U
5. U7C U9A
6. C4G G25U
7. U33A A41G
8. C4A A26G

1. 0.148
2. 0.196
3. 0.2
4. 0.135
5. 0.607
6. 0.177
7. 0.0913
8. 0.17
